# condition-set: [M+H]+; instrument: TW; calibrated with phosphatidylcholines (ESI+) and phosphatidylethanolamines (ESI-), doubly charged cardiolipins calibrated with poly-DL-…
quantity-kind: collision cross section (N2) (Å²)
Give the number; Å² is assumed, so skip it.

# annotated cases, reported collision cross section (N2) shown
So what's the measured collision cross section (N2) for this one? CCCCCCCC/C=C\CCCCCCCC(=O)OC(COC(=O)CCCCCCCCCCCCCCC)COP(=O)(O)OCCN (stereo not given) [PE(34:1)]
275.45

Suppose we examine the compound CCCCCCCCCCCCCCC(=O)O[C@H](CO)COP(=O)([O-])OCC[NH3+] [LPE(0:0/15:0)] ; what collision cross section (N2) value has been reported?
212.69

State the recorded collision cross section (N2) for this entry: CCCCCCCC/C=C/CCCCCCCC(=O)OC[C@@H](O)COP(=O)([O-])OCC[NH3+] [LPE(18:1/0:0)]
214.35

Dear colleague, I am looking for the recorded collision cross section (N2) of the following compound: CCCCCCCC/C=C/CCCCCCCC(=O)O[C@H](CO)COP(=O)([O-])OCC[NH3+] [LPE(0:0/18:1)]
215.99

# next compound below
For the compound shown here, CCCCCCCCC1CC1CCCCCCCC(=O)OC[C@@H](O)COP(=O)([O-])OCC[NH3+] (stereo not given in full) [LPE(19:1/0:0)] , give the reported collision cross section (N2).
219.65
